- protocol_summary: Ketoprofen plasma levels achieved by on-knee patch delivery (Example 7)
- Assay type: in vivo, human
- particulars: human, plasma, topical, 272 mg, Mean Ketoprofen Plasma Concentration, Two Patches; time point 6 hrs; N = 22
- Method: In one study session, subjects received one patch above one knee and in the other study session subjects received two patches simultaneously, one above each knee. The patches were applied for 12 hours and venous blood samples were collected during both study session.
measurement_type: concentration at 6 h
State the value with its unit after it.

Input: What value of concentration at 6 h has been recorded for this entry: CC(C(=O)O)c1cccc(C(=O)c2ccccc2)c1 (stereo not shown)
Output: 176 ng/mL

* * *

- protocol_summary: Ketoprofen plasma levels achieved by on-knee patch delivery (Example 7)
- Assay type: in vivo, human
- particulars: human, plasma, topical, 136 mg, Mean Ketoprofen Plasma Concentration, Single Patch; time point 42 hrs; N = 22
measurement_type: concentration at 42 h (ng/mL)
Give bare numbers, in ng/mL.

Input: What value of concentration at 42 h has been recorded for this entry: CC(C(=O)O)c1cccc(C(=O)c2ccccc2)c1 (stereo not shown)
Output: 3.9

* * *

- protocol_summary: Ketoprofen plasma levels achieved by on-knee patch delivery (Example 7)
- Format: in vivo, human
- particulars: human, plasma, topical, 272 mg, Mean Ketoprofen Plasma Concentration, Two Patches; time point 24 hrs; N = 22
measurement_type: concentration at 24 h

Input: What value of concentration at 24 h has been recorded for this entry: CC(C(=O)O)c1cccc(C(=O)c2ccccc2)c1 (stereo not shown)
Output: 31 ng/mL

* * *

- protocol_summary: Ketoprofen plasma levels achieved by on-knee patch delivery (Example 7)
- Assay type: in vivo, human
- particulars: human, plasma, topical, 136 mg, Mean Ketoprofen Plasma Concentration, Single Patch; time point 8 hrs; N = 22
measurement_type: concentration at 8 h

Input: What value of concentration at 8 h has been recorded for this entry: CC(C(=O)O)c1cccc(C(=O)c2ccccc2)c1 (stereo not shown)
Output: 116 ng/mL

* * *

- protocol_summary: Ketoprofen plasma levels achieved by on-knee patch delivery (Example 7)
- Format: in vivo, human
- particulars: human, plasma, topical, 272 mg, Mean Ketoprofen Plasma Concentration, Two Patches Dose-Normalized to one patch; time point 24 hrs; N = 22
measurement_type: concentration at 24 h
State the value with its unit after it.

Input: What value of concentration at 24 h has been recorded for this entry: CC(C(=O)O)c1cccc(C(=O)c2ccccc2)c1 (stereo not shown)
Output: 15.5 ng/mL

* * *

- protocol_summary: Ketoprofen plasma levels achieved by on-knee patch delivery (Example 7)
- Type: in vivo, human
- particulars: human, plasma, topical, 136 mg, Mean Ketoprofen Plasma Concentration, Single Patch; time point 36 hrs; N = 22
measurement_type: concentration at 36 h
State the value with its unit after it.

Input: What value of concentration at 36 h has been recorded for this entry: CC(C(=O)O)c1cccc(C(=O)c2ccccc2)c1 (stereo not shown) [Ketoprofen]
Output: 4.9 ng/mL

* * *

- protocol_summary: Ketoprofen plasma levels achieved by on-knee patch delivery (Example 7)
- Type: in vivo, human
- particulars: human, plasma, topical, 272 mg, Mean Ketoprofen Plasma Concentration, Two Patches; time point 36 hrs; N = 22
measurement_type: concentration at 36 h (ng/mL)
Numbers only, in ng/mL.

Input: What value of concentration at 36 h has been recorded for this entry: CC(C(=O)O)c1cccc(C(=O)c2ccccc2)c1 (stereo not shown)
Output: 9.9

* * *

- protocol_summary: Ketoprofen plasma levels achieved by on-knee patch delivery (Example 7)
- Assay type: in vivo, human
- particulars: human, plasma, topical, 272 mg, Mean Ketoprofen Plasma Concentration, Two Patches Dose-Normalized to one patch; time point 10 hrs; N = 22
measurement_type: concentration at 10 h (ng/mL)
Numbers only, in ng/mL.

Input: What value of concentration at 10 h has been recorded for this entry: CC(C(=O)O)c1cccc(C(=O)c2ccccc2)c1 (stereo not shown) [Ketoprofen]
Output: 123

* * *

- protocol_summary: Ketoprofen plasma levels achieved by on-knee patch delivery (Example 7)
- Assay type: in vivo, human
- particulars: human, plasma, topical, 136 mg, Mean Ketoprofen Plasma Concentration, Single Patch; time point 14 hrs; N = 22
measurement_type: concentration at 14 h (ng/mL)
One number for each entry, in ng/mL.

Input: What value of concentration at 14 h has been recorded for this entry: CC(C(=O)O)c1cccc(C(=O)c2ccccc2)c1 (stereo not shown)
Output: 79.8

* * *

- protocol_summary: Ketoprofen plasma levels achieved by on-knee patch delivery (Example 7)
- Type: in vivo, human
- particulars: human, plasma, topical, 272 mg, Mean Ketoprofen Plasma Concentration, Two Patches Dose-Normalized to one patch; time point 32 hrs; N = 22
measurement_type: concentration at 32 h
State the value with its unit after it.

Input: What value of concentration at 32 h has been recorded for this entry: CC(C(=O)O)c1cccc(C(=O)c2ccccc2)c1 (stereo not shown) [Ketoprofen]
Output: 6.2 ng/mL

* * *

- protocol_summary: Ketoprofen plasma levels achieved by on-knee patch delivery (Example 7)
- Assay type: in vivo, human
- particulars: human, plasma, topical, 272 mg, Mean Ketoprofen Plasma Concentration, Two Patches Dose-Normalized to one patch; time point 14 hrs; N = 22
measurement_type: concentration at 14 h
State the value with its unit after it.

Input: What value of concentration at 14 h has been recorded for this entry: CC(C(=O)O)c1cccc(C(=O)c2ccccc2)c1 (stereo not shown) [Ketoprofen]
Output: 78.1 ng/mL

* * *

- protocol_summary: Ketoprofen plasma levels achieved by on-knee patch delivery (Example 7)
- Format: in vivo, human
- particulars: human, plasma, topical, 272 mg, Mean Ketoprofen Plasma Concentration, Two Patches Dose-Normalized to one patch; time point 8 hrs; N = 22
measurement_type: concentration at 8 h
State the value with its unit after it.

Input: What value of concentration at 8 h has been recorded for this entry: CC(C(=O)O)c1cccc(C(=O)c2ccccc2)c1 (stereo not shown) [Ketoprofen]
Output: 108 ng/mL

* * *

- protocol_summary: Ketoprofen plasma levels achieved by on-knee patch delivery (Example 7)
- Format: in vivo, human
- particulars: human, plasma, topical, 272 mg, Mean Ketoprofen Plasma Concentration, Two Patches Dose-Normalized to one patch; time point 12 hrs; N = 22
measurement_type: concentration at 12 h (ng/mL)
One number for each entry, in ng/mL.

Input: What value of concentration at 12 h has been recorded for this entry: CC(C(=O)O)c1cccc(C(=O)c2ccccc2)c1 (stereo not shown)
Output: 114

* * *

- protocol_summary: Ketoprofen plasma levels achieved by on-knee patch delivery (Example 7)
- Type: in vivo, human
- particulars: human, plasma, topical, 272 mg, Mean Ketoprofen Plasma Concentration, Two Patches; time point 20 hrs; N = 22
measurement_type: concentration at 20 h (ng/mL)
Numbers only, in ng/mL.

Input: What value of concentration at 20 h has been recorded for this entry: CC(C(=O)O)c1cccc(C(=O)c2ccccc2)c1 (stereo not shown) [Ketoprofen]
Output: 52.2

* * *

- protocol_summary: Ketoprofen plasma levels achieved by on-knee patch delivery (Example 7)
- Assay type: in vivo, human
- particulars: human, plasma, topical, 272 mg, Mean Ketoprofen Plasma Concentration, Two Patches; time point 42 hrs; N = 22
- Method: In one study session, subjects received one patch above one knee and in the other study session subjects received two patches simultaneously, one above each knee. The patches were applied for 12 hours and venous blood samples were collected during both study session.
measurement_type: concentration at 42 h
State the value with its unit after it.

Input: What value of concentration at 42 h has been recorded for this entry: CC(C(=O)O)c1cccc(C(=O)c2ccccc2)c1 (stereo not shown)
Output: 7.2 ng/mL

* * *

- protocol_summary: Ketoprofen plasma levels achieved by on-knee patch delivery (Example 7)
- Assay type: in vivo, human
- particulars: human, plasma, topical, 136 mg, Mean Ketoprofen Plasma Concentration, Single Patch (136 mg, 172 cm^2, heated) above one knee, applied 12 h; time point 2 hrs; N = 22
measurement_type: concentration at 2 h (ng/mL)
Answers are plain numbers, in ng/mL.

Input: What value of concentration at 2 h has been recorded for this entry: CC(C(=O)O)c1cccc(C(=O)c2ccccc2)c1 (stereo not shown)
Output: 13.5

* * *

- protocol_summary: Ketoprofen plasma levels achieved by on-knee patch delivery (Example 7)
- Format: in vivo, human
- particulars: human, plasma, topical, 272 mg, Mean Ketoprofen Plasma Concentration, Two Patches Dose-Normalized to one patch; time point 36 hrs; N = 22
measurement_type: concentration at 36 h (ng/mL)
Give bare numbers, in ng/mL.

Input: What value of concentration at 36 h has been recorded for this entry: CC(C(=O)O)c1cccc(C(=O)c2ccccc2)c1 (stereo not shown)
Output: 5

* * *

- protocol_summary: Ketoprofen plasma levels achieved by on-knee patch delivery (Example 7)
- Assay type: in vivo, human
- particulars: human, plasma, topical, 136 mg, Mean Ketoprofen Plasma Concentration, Single Patch; time point 4 hrs; N = 22
measurement_type: concentration at 4 h (ng/mL)
One number for each entry, in ng/mL.

Input: What value of concentration at 4 h has been recorded for this entry: CC(C(=O)O)c1cccc(C(=O)c2ccccc2)c1 (stereo not shown) [Ketoprofen]
Output: 62.9

Ref: patent US20090005745A1
